Target: Acetylcholinesterase (Homo sapiens) (UniProt P22303)
Sequence (P22303 whole entry, looked up): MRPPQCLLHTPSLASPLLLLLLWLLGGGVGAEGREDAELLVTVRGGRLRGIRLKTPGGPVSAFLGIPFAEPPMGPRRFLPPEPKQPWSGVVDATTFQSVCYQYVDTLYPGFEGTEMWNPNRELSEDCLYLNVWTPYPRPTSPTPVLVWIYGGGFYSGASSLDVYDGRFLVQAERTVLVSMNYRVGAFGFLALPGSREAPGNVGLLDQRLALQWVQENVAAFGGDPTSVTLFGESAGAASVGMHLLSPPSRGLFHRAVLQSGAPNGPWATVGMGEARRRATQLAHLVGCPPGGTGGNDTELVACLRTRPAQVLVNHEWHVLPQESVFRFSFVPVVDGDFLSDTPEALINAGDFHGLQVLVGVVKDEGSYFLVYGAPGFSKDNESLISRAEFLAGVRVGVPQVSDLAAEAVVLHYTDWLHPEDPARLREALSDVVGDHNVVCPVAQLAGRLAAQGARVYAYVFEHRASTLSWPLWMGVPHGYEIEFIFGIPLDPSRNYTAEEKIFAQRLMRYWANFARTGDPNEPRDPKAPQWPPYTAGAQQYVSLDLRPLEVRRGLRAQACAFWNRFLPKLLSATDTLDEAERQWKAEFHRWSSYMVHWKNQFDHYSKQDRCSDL
Assay: Acetylcholinesterase (AChE) small molecule antagonists: fluorescence cell-based qHTS assay (AID 1347398); also: nearly all actives have a fitted effect of over 50% in size
Details: SH-SY5Y cells; AChE activity; series mostly up to 115 µM
Inconclusive results are not listed. Calls of active or inactive are those of the source. Calls follow the shape of the full dose curve.
Your answer must be one of the following: Y = active, N = inactive

[[record]]
molecule = "CCCCOC(=O)c1ccccc1"
target_or_test_system = "Acetylcholinesterase (Homo sapiens) (UniProt P22303)"
answer_label = "N"

[[record]]
molecule = "C=C(C)C1CCC(C)CC1O (stereo not given)"
target_or_test_system = "Acetylcholinesterase (Homo sapiens) (UniProt P22303)"
answer_label = "N"

[[record]]
molecule = "CC(C)(C)NC(N)=O"
target_or_test_system = "Acetylcholinesterase (Homo sapiens) (UniProt P22303)"
answer_label = "N"


Query block: Please let me know the test result on file for `CN1CCc2cccc3c2[C@H]1Cc1ccc(O)c(O)c1-3` .
Result block: Y

Query block: State the result this test recorded for `c1ccc(OCc2ccc(CCCN3CCOCC3)cc2)cc1` .
Result block: N

Query block: Which outcome was assigned to `CCN(Cc1c(F)cccc1Cl)c1c([N+](=O)[O-])cc(C(F)(F)F)cc1[N+](=O)[O-]` in this test?
Result block: N

Query block: Outcome logged for `C[C@]12C=CC(=O)C=C1CC[C@@H]1[C@@H]2[C@@H](O)C[C@@]2(C)[C@H]1CC[C@]2(O)C(=O)CO` in this assay:
Result block: N

Query block: How did this test come out for CC(C)CCCC(C)N (stereo not given) ?
Result block: N

Query block: Any idea what this test logged for `Cc1ccc(-n2nc(C(C)(C)C)cc2NC(=O)Nc2ccc(OCCN3CCOCC3)c3ccccc23)cc1` ?
Result block: N

Query block: GET /call?item= `O=C(O)CCC(=O)OC[C@@H](NC(=O)C(Cl)Cl)[C@H](O)c1ccc([N+](=O)[O-])cc1` returns the recorded outcome of this test.
Result block: N

Query block: Write down the call the test reported for this molecule. Item: `Nc1cc(-c2ccncc2)c[nH]c1=O`
Result block: N

Query block: Answer briefly: the call reported for `O=C(O)c1ccc(Cl)cc1Cl` in this assay.
Result block: N

Query block: What did the test return for `O=C(O)CCCCCCCCCCCC(=O)O` ?
Result block: N

Query block: Given `CNC(=O)N(c1ccccc1)c1ccccc1` , state the outcome it received in this test.
Result block: Y

Query block: Kindly provide the recorded test outcome for the following molecule: `COc1ccc2c(c1)c(CC(=O)OCC(=O)O)c(C)n2C(=O)c1ccc(Cl)cc1`
Result block: N

Query block: What was the test verdict on COc1ccc(CCN(C)CCCC(C#N)(c2ccc(OC)c(OC)c2)C(C)C)cc1OC (stereo not given) ?
Result block: N

Query block: Lab log entry: CCCCC(CC)CO (stereo not given) — outcome as called in the assay?
Result block: N

---

Biological target: Acetylcholinesterase (Homo sapiens)
Test: Acetylcholinesterase (AChE) small molecule antagonists: enzyme-based qHTS assay with human liver microsomes (AID 1347399); also: nearly all actives have a fitted effect of over 60% in size
Settings: qHTS inhibition; series mostly up to 115 µM
Activity calls are given as the source filed them. The call rests on the fitted dose curve.
readout_label: outcome

Solved entries:
[[record]]
molecule = "O=C(O)CC(=O)C(=O)O"
target_or_test_system = "Acetylcholinesterase (Homo sapiens)"
readout_label = "outcome"
observed_result = "inactive"

[[record]]
molecule = "O=C=Nc1ccc(Cl)c(Cl)c1"
target_or_test_system = "Acetylcholinesterase (Homo sapiens)"
readout_label = "outcome"
observed_result = "inactive"

[[record]]
molecule = "CC1=CC(=O)c2ccccc2C1=O"
target_or_test_system = "Acetylcholinesterase (Homo sapiens)"
readout_label = "outcome"
observed_result = "inactive"

[[record]]
molecule = "CC(C)c1nc(CN(C)C(=O)N[C@H](C(=O)N[C@@H](Cc2ccccc2)C[C@H](O)[C@H](Cc2ccccc2)NC(=O)OCc2cncs2)C(C)C)cs1"
target_or_test_system = "Acetylcholinesterase (Homo sapiens)"
readout_label = "outcome"
observed_result = "inactive"

[[record]]
molecule = "CC(C)c1cccc(O)c1"
target_or_test_system = "Acetylcholinesterase (Homo sapiens)"
readout_label = "outcome"
observed_result = "inactive"


Entry under test: `NC(=O)c1cccnc1` . Its outcome was inactive

---

Tested on: estrogen-related receptor alpha (ERRalpha) with PGC-1alpha coactivator, human
Test: qHTS assay to identify small molecule antagonists of the estrogen related receptor signaling pathway with the pleiotropic PPARgamma coactivator (PGC) (AID 1224821);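 also: lower luminescence signal means antagonism of PGC/ERR signalling; nearly all actives have a fitted effect of over 50% in size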
Details: ERR/PGC reporter cell line, luciferase, antagonist mode; series mostly up to 46.1 µM
Results filed as inconclusive are left out. Active and inactive are the calls of the source. The call rests on the fitted dose curve.
Parameter call: string, one of active, inactive

Query block: Dear all, I need the recorded test outcome for `CNCCc1c[nH]c2ccc(O)cc12` , thank you.
Result block: inactive

---

Test: qHTS assay to test for compound auto fluorescence at 535 nm (green) in HEK293 cell free culture (AID 720682)
Details: cell-free medium, green autofluorescence 485/535 nm; series mostly up to 46 µM
Activity calls are given as the source filed them. Calls follow the shape of the dose curve; as a rule, active = well fitted curve in the direction sought with a large enough effect in the repeat runs; inconclusive = weak or mixed curves; inactive = flat fitted curve, though single readings scatter.
readout_label: outcome

[[record]]
compound = "c1ccc2c(c1)Sc1ccccc1N2CC1CN2CCC1CC2 (stereo not drawn)"
observed_result = "inactive"

[[record]]
compound = "CO[C@H]1[C@@H](O)C[C@H](O[C@H]2[C@@H](O)C[C@H](O[C@H]3[C@@H](O)C[C@H](O[C@H]4CC[C@@]5(C)[C@H](CC[C@@H]6[C@@H]5C[C@@H](O)[C@]5(C)[C@@H](C7=CC(=O)OC7)CC[C@]65O)C4)O[C@@H]3C)O[C@@H]2C)O[C@@H]1C"
observed_result = "inactive"

[[record]]
compound = "O=c1ccc2cc(O[C@@H]3O[C@H](CO)[C@@H](O)[C@H](O)[C@H]3O)c(O)cc2o1"
observed_result = "inactive"


---

Assay: qHTS assay to identify small molecule antagonists of the thyroid receptor (TR) signaling pathway - cell viability counter screen (AID 743064); also: nearly all actives have a fitted effect of over 50% in size
Conditions: GH3.TRE-Luc viability, CellTiter-Fluor, 24 h; series mostly up to 70.3 µM
Results filed as inconclusive are left out. Active and inactive are the calls of the source. Calls follow the shape of the dose curve; as a rule, active = well fitted cell-killing curve with a large enough effect in the repeat runs; inconclusive = weak or mixed curves, or effect the other way; inactive = no such curve, though single readings can be large or run the other way.
Valid outcomes are listed here; reply with one: yes (active), no (inactive)

[[record]]
molecule = "C[C@]12CC[C@H]3[C@@H](CCC4=C(O)C(=O)CC[C@@H]43)[C@@H]1CC[C@@H]2OC(=O)CCC1CCCC1"
answer_label = "no"


Query block: Short answer needed: outcome of this test for `COC(=O)[C@]12CCC(C)(C)C[C@H]1[C@H]1C(=O)C=C3[C@@]4(C)C=C(C#N)C(=O)C(C)(C)[C@@H]4CC[C@@]3(C)[C@]1(C)CC2` ?
Result block: yes

Query block: What call does the record list for `C[C@H]1CC[C@]2(NC1)O[C@H]1C[C@H]3[C@@H]4CC[C@H]5C[C@@H](O[C@@H]6O[C@H](CO)[C@H](O[C@@H]7O[C@H](CO)[C@@H](O)[C@H](O[C@@H]8OC[C@@H](O)[C@H](O)[C@H]8O)[C@H]7O[C@@H]7O[C@H](CO)[C@@H](O)[C@H](O)[C@H]7O)[C@H](O)[C@H]6O)CC[C@]5(C)[C@H]4CC[C@]3(C)[C@H]1[C@@H]2C` ?
Result block: yes

Query block: Any idea what this test logged for COC([CH2][Hg])CNC(=O)c1ccccc1OCC(=O)O (configuration not stated) ?
Result block: no

Query block: For this molecule, state the assay outcome: `CCON=O`
Result block: no

Query block: Record lookup: outcome of this test for `O=C(CCl)c1ccc(Oc2ccc(C(=O)CCl)cc2)cc1` ?
Result block: no

Query block: Which outcome did this test record for the molecule `CO[C@H]1[C@@H](O)C[C@H](O[C@H]2[C@@H](O)C[C@H](O[C@H]3[C@@H](O)C[C@H](O[C@H]4CC[C@@]5(C)[C@H](CC[C@@H]6[C@@H]5C[C@@H](O)[C@]5(C)[C@@H](C7=CC(=O)OC7)CC[C@]65O)C4)O[C@@H]3C)O[C@@H]2C)O[C@@H]1C` ?
Result block: no

Query block: Lab log entry: `CCN(CC)C(=O)N[C@H]1C[C@@H]2c3cccc4[nH]cc(c34)C[C@H]2N(C)C1` — outcome as called in the assay?
Result block: no

Query block: Hi, sorry to bother you, what did the test record for `O=[N+]([O-])c1cc(I)c(O)c(I)c1` ?
Result block: yes

Query block: I'd appreciate the recorded outcome for O=P1(N(CCCl)CCCl)NC(OO)CCO1 (configuration not stated) from this test.
Result block: no

Query block: Record request — test call for CNC1(c2ccccc2Cl)CCCCC1=O (configuration not stated)
Result block: no

Query block: Write down the call the test reported for this molecule. Item: `F/C(COc1ccc2c(c1)[nH]c1ccccc12)=C1/CN2CCC1CC2`
Result block: yes

Query block: For `CCCN1CCC[C@H](c2cccc(O)c2)C1` , which call appears in the assay record?
Result block: no

Query block: // outcome(item) with item = `CC(C)CCC(=O)O[C@H]1CC[C@H]2[C@@H]3CCC4=CC(=O)CC[C@]4(C)[C@H]3CC[C@]12C`
Result block: yes

Query block: Hey, what did the test say about CNc1ccc(C(=O)CC(O)CCC(C)C2OC(=O)CC(O)CC(=O)CC(O)CC(O)CC(O)CC(O)CC3(O)CC(O)C(C(=O)OC)C(CC(O[C@@H]4O[C@H](C)[C@@H](O)[C@H](N)[C@@H]4O)/C=C/C=C/C=C/C=C/C=C/C=C/C=C/C2C)O3)cc1 (some centres not stated) ?
Result block: no

Query block: Identify the outcome logged in this assay for the molecule shown: `c1ccccc1`
Result block: no
